testTarget: T1, human TREM2 (human, UniProt Q9NZC2 19-174, limits assumed)
T1 sequence: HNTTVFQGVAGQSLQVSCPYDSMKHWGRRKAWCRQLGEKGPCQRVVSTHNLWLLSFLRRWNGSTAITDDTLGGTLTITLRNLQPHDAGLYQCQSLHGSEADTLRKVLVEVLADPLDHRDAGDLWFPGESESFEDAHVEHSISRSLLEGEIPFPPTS
testDetails: yeast-displayed Fab FACS, 2nd screen 100 nM
Label scheme for binding signal fold over 6E7 parental: lower than 0.4 fold is no, 0.4 fold and above is yes.

{"binder": "V59 (Fab, V domains shown) VH: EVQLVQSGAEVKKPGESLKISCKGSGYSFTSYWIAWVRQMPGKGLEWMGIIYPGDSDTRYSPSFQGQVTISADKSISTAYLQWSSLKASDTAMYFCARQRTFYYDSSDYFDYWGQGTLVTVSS VL: DIQMTQSPSSVSASVGDRVTITCRASQGISSWLAWYQQKPGKAPKLLIYAASSLQNGVPSRFSGSGSGTDFTLTISSLQPEDFATYFCMQADSFPRTFGQGTKLEIK", "classLabel": "yes"}
{"binder": "V32 (Fab, V domains shown) VH: EVQLVQSGAEVKKPGESLKISCKGSGYSFTSYWIAWVRQMPGKGLEWMGIIYPGDSDTRYSNSFQGQVTISADKSISTAYLQWSSLKASDTAMYFCARQRTFYYDSSDYFDYWGQGTLVTVSS VL: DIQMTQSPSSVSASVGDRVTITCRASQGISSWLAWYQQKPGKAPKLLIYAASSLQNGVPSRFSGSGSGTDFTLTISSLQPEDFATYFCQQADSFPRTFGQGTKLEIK", "classLabel": "yes"}
{"binder": "V19 (Fab, V domains shown) VH: EVQLVQSGAEVKKPGESLKISCKGSGYSFTSSWIAWVRQMPGKGLEWMGIIYPGDSDTRYSPSFQGQVTISADKSISTAYLQWSSLKASDTAMYFCARQRTFYYDSSDYFDYWGQGTLVTVSS VL: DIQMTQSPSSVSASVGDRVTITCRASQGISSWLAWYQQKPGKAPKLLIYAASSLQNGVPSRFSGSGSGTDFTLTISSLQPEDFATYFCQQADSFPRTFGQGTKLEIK", "classLabel": "yes"}

### Prompt Hello, I need to know if V81 (Fab, V domains shown) VH: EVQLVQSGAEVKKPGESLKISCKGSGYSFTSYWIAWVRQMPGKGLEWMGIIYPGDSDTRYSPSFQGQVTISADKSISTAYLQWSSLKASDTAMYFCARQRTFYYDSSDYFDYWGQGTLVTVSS VL: DIQMTQSPSSVSASVGDRVTITCRASQGISSLLAWYQQKPGKAPKLLIYAASSLQNGVPSRFSGSGSGTDFTLTISSLQPEDFATYFCQQADSFPRTFGQGTKLEIK has measured binding signal fold over 6E7 parental not below 0.4 fold. Thanks!
### Response no

Value source: patent US20220204611A1
